measurement_protocol: Blood plasma concentration of HMB in piglets infused with HMB
Format: in vivo, neonatal pigs
condition_details: pig, intravenous, piglets infused with 100 μmol·kg^−1·hr^−1 HMB
Procedure: Overnight fasted neonatal pigs (5-7 days old) were infused with HMB with 0, 20, 100, or 400 μmol·kg^−1·hr^−1 HMB. Blood plasma concentrations of the following circulating substrates were measured. HMB was measured using gas chromatography per the method set forth in: Nissen, Steven (1990). Analysis of β-Hydroxy-β-methyl Butyrate in Plasma by Gas […] Chromatography and Mass Spectrometry Analytical Biochemistry 188, 17-19.
measure_name: concentration at 1 h (µM)
I only need the number, in µM, no unit after it.

Give its concentration at 1 h value. Item: CC(C)(O)CC(=O)O [HMB, beta-hydroxy-beta-methylbutyric acid]
316
